- Tested on: SW-620 colon
- METHOD_SUMMARY: NCI tumour cell line growth inhibition, 48 h; in the data active means GI50 below about 0.43 µM; inactive means the rest
Valid outcomes are listed here; reply with one: label 1 = active, label 0 = inactive

Example results:
C/C(=N\NC(=O)c1ccc(C(C)(C)C)cc1)c1ccc(O)cc1O    label 0
COC1C(O)CC(OC2CC(OC3CC(O[C@@H]4C(=O)c5c(cc6cc(OC7CC(OC8CC(O)C(O)C(C)O8)C(O)C(C)O7)c(C)c(O)c6c5O)CC4[C@H](OC)C(=O)C(C)=O)OC(C)C3O)OC(C)C2O)OC1C (some centres undefined)    label 1
c1ccc(CSCCNCCN(CCNCCSCc2ccccc2)CCNCCSCc2ccccc2)cc1    label 0

Please look at the following compound next.
[ask] Per the records of this test, what outcome belongs to CCN(CC)c1ccc(C2=NN(C(C)=O)C(c3cc(OC)c(OC)c(OC)c3)C2)cc1 (centres undefined) ?
[reply] label 1
